Data provenance is ChEMBL document CHEMBL3885861.

- Species: Rattus norvegicus
- ASSAY: Open TG-GATES - Regimen: Daily Repeat
- Format: toxicity, organism-based, Sprague-Dawley
- Design: regimen Daily Repeat, gender Male, age 6 weeks
- CONDITION_DETAILS: in vivo, po, 100 mg/kg, […], tissue Plasma, route gavage, dose level Low, time 14 day
Documented Ca across a set of molecules
MEASURED_PROPERTY: Ca (mg/dL)

CCCCNC(=O)NS(=O)(=O)c1ccc(C)cc1 [TOLBUTAMIDE]; 10.7
O=C(O)c1ccccc1Nc1ccccc1 [FENAMIC ACID]; 11.1
CC(S)C(=O)NCC(=O)O (centres undefined) [TIOPRONIN]; 10.4
CC(=O)[C@@]1(O)CC[C@H]2[C@@H]3C=C(Cl)C4=CC(=O)CC[C@]4(C)[C@H]3CC[C@@]21C [CHLORMADINONE]; 10.3

----------
- Species: Rattus norvegicus
- ASSAY: Open TG-GATES - Regimen: Single
- Type: toxicity, organism-based, Sprague-Dawley
- Parameters: regimen Single, gender Male, age 6 weeks
- CONDITION_DETAILS: in vivo, po, 0 mg/kg, 24 h, tissue Plasma, route gavage, dose level Control
MEASURED_PROPERTY: Na (meq/L)

O=C(O)c1ccccc1Nc1ccccc1 [FENAMIC ACID]; 142.6
CCO [ALCOHOL]; 139
CN(C/C=C/C#CC(C)(C)C)Cc1cccc2ccccc12 [TERBINAFINE]; 141.2
NS(=O)(=O)c1cc(C(=O)O)c(NCc2ccco2)cc1Cl [FUROSEMIDE]; 141.6
CC(S)C(=O)NCC(=O)O (stereo not given) [TIOPRONIN]; 142
COc1cc2ncnc(Nc3ccc(F)c(Cl)c3)c2cc1OCCCN1CCOCC1 [GEFITINIB]; 142.1
CCN(CC)C(=S)SSC(=S)N(CC)CC; 141.2
CN(CCOc1ccc(CC2SC(=O)NC2=O)cc1)c1ccccn1.O=C(O)/C=C\C(=O)O (stereo not given) [ROSIGLITAZONE MALEATE]; 140.4
CCCCNC(=O)NS(=O)(=O)c1ccc(C)cc1 [TOLBUTAMIDE]; 141.6
COc1ccc([C@@H]2Sc3ccccc3N(CCN(C)C)C(=O)[C@@H]2OC(C)=O)cc1 [DILTIAZEM]; 143.8

----------
- Species on record: Rattus norvegicus
- ASSAY: Open TG-GATES - Regimen: Daily Repeat
- Assay type: toxicity, organism-based, Sprague-Dawley
- Set-up: regimen Daily Repeat, gender Male, age 6 weeks
- CONDITION_DETAILS: in vivo, po, 0 mg/kg, […], tissue Blood, route gavage, dose level Control, time 14 day
MEASURED_PROPERTY: Ht (%)

NS(=O)(=O)c1cc(C(=O)O)c(NCc2ccco2)cc1Cl [FUROSEMIDE]; 43.1
CCO; 44.7
CCCCC1C(=O)N(c2ccccc2)N(c2ccccc2)C1=O; 44.8
CC(=O)[C@@]1(O)CC[C@H]2[C@@H]3C=C(Cl)C4=CC(=O)CC[C@]4(C)[C@H]3CC[C@@]21C; 41.9
O=c1ccc2ccccc2o1; 42.9

----------
- Species on record: Rattus norvegicus
- ASSAY: Open TG-GATES - Regimen: Daily Repeat
- Assay type: toxicity, organism-based, Sprague-Dawley
- Design: regimen Daily Repeat, gender Male, age 6 weeks
- CONDITION_DETAILS: in vivo, po, 100 mg/kg, 72 h, tissue Liver, route gavage, dose level Low, time 3 day
MEASURED_PROPERTY: LIVER

CC(=O)[C@@]1(O)CC[C@H]2[C@@H]3C=C(Cl)C4=CC(=O)CC[C@]4(C)[C@H]3CC[C@@]21C; 10.5 g
CCCCNC(=O)NS(=O)(=O)c1ccc(C)cc1 [TOLBUTAMIDE]; 11.3 g
CC(S)C(=O)NCC(=O)O (centres undefined); 10.8 g
O=C(O)c1ccccc1Nc1ccccc1; 11.2 g
